- Experiment Summary: Cytotoxicity against human HEp-2 cells assessed as reduction in cell viability after 48 hrs by MTS assay
- Format: cell-based
Labels assigned by CC50 at 48 h range: bottom (below 200 µM), middle (200 µM to below 600 µM), top (600 µM or more)

Worked examples follow.
• CNc1ccc2cccc(OCC(=O)NCc3ccccc3)c2n1 = bottom
• c1cc(OCCCN2CCOCC2)c2nc(N3CCCC3)ccc2c1 = middle
• c1cc(OCCCCCN2CCOCC2)c2nc(N3CCCC3)ccc2c1 = bottom
• O=C(COc1cccc2ccc(N3CCOCC3)nc12)NCc1ccccc1 = bottom
• CC(C)(C)OC(=O)N1CCN(c2ccc3cccc(OCC(=O)NCc4ccccc4)c3n2)CC1 = top

Now take the following molecule into account.
// bin(item) where item = CN1CCN(c2ccc3cccc(OCC(=O)NCc4ccccc4)c3n2)CC1
middle

====

List of IC50 values.
- Test system: HEK-293T
- Experiment Summary: Cytotoxicity against human HEK-293T cells assessed as reduction in cell viability after 48 hrs by CCK-8 assay
- Type: cell-based

Quickly give me recorded IC50 for CC(C)(C)OC(=O)N[C@@H]1CCN(c2ccc3cccc(OCC(=O)NCc4ccccc4)c3n2)C1
49.9 µM

Answer with reported IC50 of O=C(COc1cccc2ccc(N3CCCC3)nc12)NCc1ccccc1
> 100 µM

====

// reported selectivity ratio for each item listed
- Experiment Summary: Selectivity index, ratio of CC50 for cytotoxicity against human HEp-2 cells to IC50 for antiviral activity against RSV Long expressing mGFP infected in HEp-2 cells
- Format: toxicity, cell-based
- Assay Setup: read-out: Ratio CC50/IC50
Answer with a number only.

- CC(C)(C)OC(=O)N1CCN(c2ccc3cccc(OCC(=O)NCc4ccccc4)c3n2)CC1: 80.9
- CS(=O)(=O)c1ccc(CNC(=O)COc2cccc3ccc(N4CCCC4)nc23)cc1: 6.14
- COc1cccc(CNC(=O)COc2cccc3ccc(N4CCCC4)nc23)c1: 10.7

Kindly indicate its recorded selectivity ratio. Item: CNc1ccc2cccc(OCC(=O)NCc3ccccc3)c2n1
9.2

Give selectivity ratio for the following compound: O=C(COc1cccc2ccc(N3CCOCC3)nc12)NCc1ccccc1
1.28

Hello, please tell me recorded selectivity ratio for this one: O=C(COc1cccc2ccc(N3CCCC3)nc12)NCc1cccc(F)c1
0.15

====

- Experiment Summary: Selectivity index, ratio of CC50 for cytotoxicity against human HEp-2 cells to IC50 for antiviral activity against RSV Long expressing mGFP infected in HEp-2 cells
- Format: toxicity, cell-based
- Assay Setup: read-out: Ratio CC50/IC50
Property Measured: selectivity ratio
Enter the number alone.

Use the examples below as a reference point.
• O=C(COc1cccc2ccc(Cl)nc12)NCc1ccccc1 = 25.6
• CC(C)(C)OC(=O)N[C@H]1CCN(c2ccc3cccc(OCC(=O)NCc4ccccc4)c3n2)C1 = 9.59
• c1cc(OCCCN2CCOCC2)c2nc(N3CCCC3)ccc2c1 = 39.2
• O=C(COc1cccc2ccc(N3CCCC3)nc12)Nc1ccccc1 = 18.4

Write down selectivity ratio measured for item CN(C)c1ccc2cccc(OCC(=O)NCc3ccccc3)c2n1
54.1

Retrieve selectivity ratio measured for O=C(COc1cccc2ccc(N3CCCC3)nc12)NCc1ccc(Cl)cc1 and print it.
6.26

Dear colleague, please send me the reported selectivity ratio for CN1CCN(c2ccc3cccc(OCC(=O)NCc4ccccc4)c3n2)CC1 when you can.
13.7

====

- Experiment Summary: Selectivity index, ratio of CC50 for cytotoxicity against human HEK-293T cells to IC50 for antiviral activity against Influenza A virus A/WSN/33(H1N1) […] cells
- Format: toxicity, cell-based
- Assay Setup: read-out: Ratio CC50/IC50
Property Measured: selectivity ratio

* CC(C)(C)OC(=O)N[C@H]1CCN(c2ccc3cccc(OCC(=O)NCc4ccccc4)c3n2)C1 | 11.3
* O=C(COc1cccc2ccc(N3CCCC3)nc12)NCc1ccc(Br)cc1 | > 2.36
* O=C(COc1cccc2ccc(N3CCCC3)nc12)NC12CC3CC(CC(C3)C1)C2 | > 8.73
* CN1CCN(c2ccc3cccc(OCC(=O)NCc4ccccc4)c3n2)CC1 | > 10.1
* CC(C)(C)OC(=O)N1CCN(c2ccc3cccc(OCC(=O)NCc4ccccc4)c3n2)CC1 | > 53.5

Consider the additional molecule presented here.
Give the reported selectivity ratio for this molecule. O=C(COc1cccc2ccc(N3CCCC3)nc12)NCc1ccccc1
> 7.5

====

- Experiment Summary: Cytotoxicity against human HEp-2 cells assessed as reduction in cell viability after 48 hrs by MTS assay
- Assay type: cell-based
Property Measured: CC50 at 48 h (µM)
Just the number in µM, nothing appended.

Examples from the recorded data:
• CN(C)c1ccc2cccc(OCC(=O)NCc3ccccc3)c2n1 = 168
• O=C(COc1cccc2ccc(N3CCCC3)nc12)NCc1cccc(F)c1 = 444
• c1cc(OCCCCN2CCOCC2)c2nc(N3CCCC3)ccc2c1 = 691

Answer with the recorded CC50 at 48 h for the compound listed here: NC(=O)c1ncn([C@@H]2O[C@H](CO)[C@@H](O)[C@H]2O)n1 [RIBAVIRIN]
3040

Write down CC50 at 48 h measured for item CC(C)(C)OC(=O)N[C@@H]1CCN(c2ccc3cccc(OCC(=O)NCc4ccccc4)c3n2)C1
58.6

====

Listed compounds paired with reported log10 of CC50 at 48 h
- Experiment Summary: Cytotoxicity against human HEp-2 cells assessed as reduction in cell viability after 48 hrs by MTS assay
- Assay type: cell-based
The base-10 logarithm of CC50 at 48 h, taken with CC50 at 48 h in µM, is what appears here.

In one line, give reported log10 of CC50 at 48 h of the entry CC(C)(C)OC(=O)N[C@H]1CCN(c2ccc3cccc(OCC(=O)NCc4ccccc4)c3n2)C1 .
1.64

Input COc1ccc(CNC(=O)COc2cccc3ccc(N4CCCC4)nc23)cc1 , output reported log10 of CC50 at 48 h.
3.40

Give reported log10 of CC50 at 48 h value for CCOc1ccccc1NC(=O)COc1cccc2ccc(N3CCCC3)nc12
3.02

====

- Tested on: HEK-293T
- Experiment Summary: Cytotoxicity against human HEK-293T cells assessed as reduction in cell viability after 48 hrs by CCK-8 assay
- Format: cell-based
Measured IC50 accompanies every entry in the list below.

• CC(C)(C)OC(=O)N[C@H]1CCN(c2ccc3cccc(OCC(=O)NCc4ccccc4)c3n2)C1 = 58 µM
• CC(C)(C)OC(=O)N1CCN(c2ccc3cccc(OCC(=O)NCc4ccccc4)c3n2)CC1 = > 100 µM
• CN1CCN(c2ccc3cccc(OCC(=O)NCc4ccccc4)c3n2)CC1 = > 100 µM
• CCOc1ccccc1CNC(=O)COc1cccc2ccc(N3CCCC3)nc12 = > 100 µM

Next compound, IC50 to be filled in.
Report measured IC50; entry is O=C(COc1cccc2ccc(N3CCCC3)nc12)NCc1ccc(C(F)(F)F)cc1
> 100 µM

====

- Experiment Summary: Selectivity index, ratio of CC50 for cytotoxicity against human HEp-2 cells to IC50 for antiviral activity against RSV Long expressing mGFP infected in HEp-2 cells
- Format: toxicity, cell-based
- Assay Setup: read-out: Ratio CC50/IC50
Property Measured: selectivity ratio

These solved cases illustrate the format of a correct answer.
- O=C(COc1cccc2ccc(N3CCCC3)nc12)NCc1ccc(C(F)(F)F)cc1: 11.8
- O=C(COc1cccc2ccc(N3CCCC3)nc12)NCc1ccco1: 10.9
- O=C(COc1cccc2ccc(N3CCCC3)nc12)NCc1cccc(Cl)c1: 2.41

Note selectivity ratio for the molecule shown: O=C(COc1cccc2ccc(N3CCCC3)nc12)NCc1ccc(F)cc1
483

Please list selectivity ratio recorded for the molecule CCOC(=O)COc1cccc2ccc(N3CCCC3)nc12
50.3

====

- Experiment Summary: Selectivity index, ratio of CC50 for cytotoxicity against human HEp-2 cells to IC50 for antiviral activity against RSV Long expressing mGFP infected in HEp-2 cells
- Format: toxicity, cell-based
- Assay Setup: read-out: Ratio CC50/IC50
Property Measured: selectivity ratio
Keep it simple and answer with nothing but the number.

// known answers, use as guide
* CCOc1ccccc1NC(=O)COc1cccc2ccc(N3CCCC3)nc12 | 31.5
* O=C(COc1cccc2ccc(N3CCCC3)nc12)NCc1ccccc1Br | 1.71
* O=C(COc1cccc2ccc(N3CCCCC3)nc12)NCc1ccccc1 | 66.7
* c1cc(OCCCCCN2CCOCC2)c2nc(N3CCCC3)ccc2c1 | 5.52
* COc1ccc(CNC(=O)COc2cccc3ccc(N4CCCC4)nc23)cc1 | 673
* CC(C)(C)OC(=O)N[C@@H]1CCN(c2ccc3cccc(OCC(=O)NCc4ccccc4)c3n2)C1 | 1.66

// Input: NC(=O)c1ncn([C@@H]2O[C@H](CO)[C@@H](O)[C@H]2O)n1 [RIBAVIRIN] . Output its selectivity ratio only.
175

Please report the measured selectivity ratio for O=C(COc1cccc2ccc(N3CCCC3)nc12)NCC1CC1
20
